# credit: the supplement of paper PMC10567573

The variants listed here are annotated with their protein stability index.
B1: HESX1 (parent)
chain: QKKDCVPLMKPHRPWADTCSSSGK

variants of: B1; experiment: protein stability index of a GFP-peptide fusion (GPS, HEK-293T) (PSI 1-6); higher = more stable; conditions: c terminus: a fixed tail appended;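 note: lentivirally expressed fusions sorted by FACS into six bins by GFP to DsRed ratio, PSI derived from sequencing read proportions per bin multiplied by bin number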
Please reply with the value in numeric form only.

mutationlabel=L8Y numericreadout=3.78

Could you share which protein stability index value was measured for `P7N` ?
3.07

Could you share which protein stability index value was measured for `P11Q` ?
2.74

Could you share which protein stability index value was measured for `K3T` ?
3.13
